FYI, the data here is from patent US20180072739A1.

Experiment: physchem
Conditions: water, 25 °C, thermodynamic from solid
measured-quantity: solubility at 30 min

| substance-smiles | recorded-measurement |
| --- | --- |
| C=CC(=O)N1CCC[C@@H](n2nc(-c3ccc(Oc4ccccc4)cc3)c3c(N)ncnc32)C1 | ~1640 µg/mL |

###

Assay: physchem
Details: water, 25 °C, thermodynamic from solid

| substance-smiles | solubility at 120 min |
| --- | --- |
| C=CC(=O)N1CCC[C@@H](n2nc(-c3ccc(Oc4ccccc4)cc3)c3c(N)ncnc32)C1 | ~1690 µg/mL |

###

Test: physchem
Conditions: water, 25 °C, thermodynamic from solid

| substance-smiles | solubility at 60 min |
| --- | --- |
| C=CC(=O)N1CCC[C@@H](n2nc(-c3ccc(Oc4ccccc4)cc3)c3c(N)ncnc32)C1 | ~1640 µg/mL |
